assay: Ratio of drug uptake in Sprague-Dawley rat liver to plasma at 10 mg/kg, ig administered as single dose measured after 2 hrs by UPLC-MS/MS analysis; type: ADME, organism-based; settings: po
OUTCOME MEASURE: Kp at 2 h
Output: the number by itself.

COC(=O)N[C@H](C(=O)N1CCC[C@H]1C(=O)Nc1ccc([C@@H]2CC[C@@H](c3ccc(NC(=O)[C@@H]4CCCN4C(=O)[C@@H](NC(=O)OC)C(C)C)cc3)N2c2ccc(C(C)(C)C)cc2)cc1)C(C)C ... 24.6

Recorded Kp at 2 h (molecule CC[Si](CC)(CC)c1ccc(N2[C@H](c3ccc(NC(=O)[C@@H]4CCCN4C(=O)[C@@H](NC(=O)OC)C(C)C)cc3)CC[C@H]2c2ccc(NC(=O)[C@@H]3CCCN3C(=O)[C@@H](NC(=O)OC)C(C)C)cc2)cc1 ): 28.1

====

Parameter Cmax: see the listing below.
assay: Cmax in mouse at 10 mg/kg, ig administered as single dose by UPLC-MS/MS analysis; assay type: ADME, organism-based; set-up: dose 10 mg/kg, route intragastric; details: in vivo, po
Numeric only. Scale: ng/mL

// known answers, use as guide
COC(=O)N[C@H](C(=O)N1CCC[C@H]1C(=O)Nc1ccc([C@@H]2CC[C@@H](c3ccc(NC(=O)[C@@H]4CCCN4C(=O)[C@@H](NC(=O)OC)C(C)C)cc3)N2c2ccc([Si](C)(C)C(C)(C)C)cc2)cc1)C(C)C ... 211
COC(=O)N[C@H](C(=O)N1CCC[C@H]1C(=O)Nc1ccc([C@@H]2CC[C@@H](c3ccc(NC(=O)[C@@H]4CCCN4C(=O)[C@@H](NC(=O)OC)C(C)C)cc3)N2c2ccc(C(C)(C)C)cc2)cc1)C(C)C ... 583
COC(=O)N[C@H](C(=O)N1CCC[C@H]1C(=O)Nc1ccc([C@@H]2CC[C@@H](c3ccc(NC(=O)[C@@H]4CCCN4C(=O)[C@@H](NC(=O)OC)C(C)C)cc3)N2c2ccc([Si](C)(C)C)cc2)cc1)C(C)C ... 262

Next compound, please.
Recorded Cmax (compound CC[Si](CC)(CC)c1ccc(N2[C@H](c3ccc(NC(=O)[C@@H]4CCCN4C(=O)[C@@H](NC(=O)OC)C(C)C)cc3)CC[C@H]2c2ccc(NC(=O)[C@@H]3CCCN3C(=O)[C@@H](NC(=O)OC)C(C)C)cc2)cc1 ): 198

====

assay: Apparent permeability from basolateral to apical side in human Caco2 cells after 90 mins by UPLC-MS/MS analysis; type: ADME, cell-based; details: Caco-2
Parameter Papp B→A at 1.5 h: see the listing below.
Numeric only. Scale: nm/s

CC[Si](CC)(CC)c1ccc(N2[C@H](c3ccc(NC(=O)[C@@H]4CCCN4C(=O)[C@@H](NC(=O)OC)C(C)C)cc3)CC[C@H]2c2ccc(NC(=O)[C@@H]3CCCN3C(=O)[C@@H](NC(=O)OC)C(C)C)cc2)cc1 ... 0.5

Next compound, please.
Recorded Papp B→A at 1.5 h (compound COC(=O)N[C@H](C(=O)N1CCC[C@H]1C(=O)Nc1ccc([C@@H]2CC[C@@H](c3ccc(NC(=O)[C@@H]4CCCN4C(=O)[C@@H](NC(=O)OC)C(C)C)cc3)N2c2ccc(C(C)(C)C)cc2)cc1)C(C)C [OMBITASVIR] ): 5.4

====

Parameter Tmax: see the listing below.
test: Tmax in beagle dog at 2 mg/kg, po administered as single dose by UPLC-MS/MS analysis; format: ADME, organism-based, Canis lupus familiaris; conditions: in vivo

CC[Si](CC)(CC)c1ccc(N2[C@H](c3ccc(NC(=O)[C@@H]4CCCN4C(=O)[C@@H](NC(=O)OC)C(C)C)cc3)CC[C@H]2c2ccc(NC(=O)[C@@H]3CCCN3C(=O)[C@@H](NC(=O)OC)C(C)C)cc2)cc1 ... 10.5 h

Next molecule, please.
Recorded Tmax (molecule COC(=O)N[C@H](C(=O)N1CCC[C@H]1C(=O)Nc1ccc([C@@H]2CC[C@@H](c3ccc(NC(=O)[C@@H]4CCCN4C(=O)[C@@H](NC(=O)OC)C(C)C)cc3)N2c2ccc(C(C)(C)C)cc2)cc1)C(C)C [OMBITASVIR] ): 8.3 h

====

test: Protein binding in dog plasma at 1 uM after 6 hrs by UPLC-MS/MS based equilibrium dialysis method; assay type: ADME, cell-free, Canis lupus familiaris; settings: read-out: PPB (converted)
OUTCOME MEASURE: fraction unbound at 6 h, 1 µM
Output: the number by itself.

CC[Si](CC)(CC)c1ccc(N2[C@H](c3ccc(NC(=O)[C@@H]4CCCN4C(=O)[C@@H](NC(=O)OC)C(C)C)cc3)CC[C@H]2c2ccc(NC(=O)[C@@H]3CCCN3C(=O)[C@@H](NC(=O)OC)C(C)C)cc2)cc1 ... 4e-05

Next compound, please.
Recorded fraction unbound at 6 h, 1 µM (compound COC(=O)N[C@H](C(=O)N1CCC[C@H]1C(=O)Nc1ccc([C@@H]2CC[C@@H](c3ccc(NC(=O)[C@@H]4CCCN4C(=O)[C@@H](NC(=O)OC)C(C)C)cc3)N2c2ccc(C(C)(C)C)cc2)cc1)C(C)C [OMBITASVIR] ): 2e-05

====

experiment: Protein binding in human plasma at 10 uM after 6 hrs by UPLC-MS/MS based equilibrium dialysis method; format: ADME, cell-free; conditions: read-out: PPB (converted)
Parameter fraction unbound at 6 h, 10 µM: see the listing below.
Output: the number by itself.

CC[Si](CC)(CC)c1ccc(N2[C@H](c3ccc(NC(=O)[C@@H]4CCCN4C(=O)[C@@H](NC(=O)OC)C(C)C)cc3)CC[C@H]2c2ccc(NC(=O)[C@@H]3CCCN3C(=O)[C@@H](NC(=O)OC)C(C)C)cc2)cc1 ... 8e-05

Next compound, please.
Recorded fraction unbound at 6 h, 10 µM (compound COC(=O)N[C@H](C(=O)N1CCC[C@H]1C(=O)Nc1ccc([C@@H]2CC[C@@H](c3ccc(NC(=O)[C@@H]4CCCN4C(=O)[C@@H](NC(=O)OC)C(C)C)cc3)N2c2ccc(C(C)(C)C)cc2)cc1)C(C)C ): 4e-05

====

assay: Cmax in beagle dog at 2 mg/kg, po administered as single dose by UPLC-MS/MS analysis; type: ADME, organism-based, Canis lupus familiaris; design: dose 2 mg/kg, route oral; settings: in vivo
OUTCOME MEASURE: Cmax (ng/mL)
Numeric only. Scale: ng/mL

COC(=O)N[C@H](C(=O)N1CCC[C@H]1C(=O)Nc1ccc([C@@H]2CC[C@@H](c3ccc(NC(=O)[C@@H]4CCCN4C(=O)[C@@H](NC(=O)OC)C(C)C)cc3)N2c2ccc(C(C)(C)C)cc2)cc1)C(C)C ... 15.7

Next molecule, please.
Recorded Cmax (molecule CC[Si](CC)(CC)c1ccc(N2[C@H](c3ccc(NC(=O)[C@@H]4CCCN4C(=O)[C@@H](NC(=O)OC)C(C)C)cc3)CC[C@H]2c2ccc(NC(=O)[C@@H]3CCCN3C(=O)[C@@H](NC(=O)OC)C(C)C)cc2)cc1 ): 29.2

====

assay: Protein binding in mouse plasma at 1 uM after 6 hrs by UPLC-MS/MS based equilibrium dialysis method; assay type: ADME, cell-free; settings: read-out: PPB (converted)
Parameter fraction unbound at 6 h, 1 µM: see the listing below.
Output: the number by itself.

CC[Si](CC)(CC)c1ccc(N2[C@H](c3ccc(NC(=O)[C@@H]4CCCN4C(=O)[C@@H](NC(=O)OC)C(C)C)cc3)CC[C@H]2c2ccc(NC(=O)[C@@H]3CCCN3C(=O)[C@@H](NC(=O)OC)C(C)C)cc2)cc1 ... 8e-05

Next molecule, please.
Recorded fraction unbound at 6 h, 1 µM (molecule COC(=O)N[C@H](C(=O)N1CCC[C@H]1C(=O)Nc1ccc([C@@H]2CC[C@@H](c3ccc(NC(=O)[C@@H]4CCCN4C(=O)[C@@H](NC(=O)OC)C(C)C)cc3)N2c2ccc(C(C)(C)C)cc2)cc1)C(C)C [OMBITASVIR] ): 4e-05

====

Parameter Papp A→B at 1.5 h: see the listing below.
assay: Apparent permeability from apical to basolateral side in human Caco2 cells after 90 mins by UPLC-MS/MS analysis; assay type: ADME, cell-based; conditions: Caco-2
Numeric only. Scale: ×10⁻⁶ cm/s

CC[Si](CC)(CC)c1ccc(N2[C@H](c3ccc(NC(=O)[C@@H]4CCCN4C(=O)[C@@H](NC(=O)OC)C(C)C)cc3)CC[C@H]2c2ccc(NC(=O)[C@@H]3CCCN3C(=O)[C@@H](NC(=O)OC)C(C)C)cc2)cc1 ... 0.07

Next compound, please.
Recorded Papp A→B at 1.5 h (compound COC(=O)N[C@H](C(=O)N1CCC[C@H]1C(=O)Nc1ccc([C@@H]2CC[C@@H](c3ccc(NC(=O)[C@@H]4CCCN4C(=O)[C@@H](NC(=O)OC)C(C)C)cc3)N2c2ccc(C(C)(C)C)cc2)cc1)C(C)C ): 0.08
